ASSAY_PROTOCOL: Solubility of flecainide in D/L-lactic acid media
Type: physicochemical
MEASUREMENT_SETUP: 20% w/v HPβCD in water with D-lactic acid, aqueous with cosolvent or surfactant or cyclodextrin, thermodynamic from solid; 20% w/v HPβCD, D-lactic acid, 24 h, pH 5.8
READOUT: solubility at 24 h
Write the quantity with the unit trailing the number.

Sample O=C(NCC1CCCCN1)c1cc(OCC(F)(F)F)ccc1OCC(F)(F)F (stereo not shown) [flecainide] — what was its solubility at 24 h? 84.8 mg/mL

* * *

ASSAY_PROTOCOL: FLE-002 (INSTANT) study: plasma levels of flecainide (Cmax)
Assay type: in vivo
MEASUREMENT_SETUP: human, inhaled, 90 mg, oral inhalation, 90 mg eTLD, read-out: Cmax Range
READOUT: Cmax

Sample O=C(NCC1CCCCN1)c1cc(OCC(F)(F)F)ccc1OCC(F)(F)F (stereo not shown) [flecainide] — what was its Cmax? 0.017 to 0.834 µg/mL
